Tgt: human JAK1 (a.a. 837-1142) (Homo sapiens, UniProt P23458)
Construct: human JAK1 (a.a. 837-1142); His tag (N); made in house; host or cells: insect cells (baculovirus)
Sequence (P23458 849-1154): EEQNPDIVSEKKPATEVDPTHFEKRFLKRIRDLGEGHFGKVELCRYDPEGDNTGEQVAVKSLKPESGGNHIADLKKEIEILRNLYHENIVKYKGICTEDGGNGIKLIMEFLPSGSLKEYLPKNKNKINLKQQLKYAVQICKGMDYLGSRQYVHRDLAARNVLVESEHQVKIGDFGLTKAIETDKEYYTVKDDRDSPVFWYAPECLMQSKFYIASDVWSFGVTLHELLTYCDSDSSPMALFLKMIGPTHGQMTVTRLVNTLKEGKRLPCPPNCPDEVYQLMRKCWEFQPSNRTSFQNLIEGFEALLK
Test Method Notes: In vitro JAK kinase assay (HTRF, phosphorylation of a biotinylated peptide), JAK1
Format: biochemical
Particulars: method AA1 (90 μM ATP) or AA2 (1000 μM ATP), not stated per value; read-out: JAK1 IC50
Where a name gives a salt, the structure may show the parent alone.
# strict inequality: IC50 < 9 nM yields t, everything else yields f

Before answering, review these 3 worked examples.
INSERT INTO measurements (compound, cat) VALUES
  ('O=C(CC1CCN(C(=O)NC2CCCC2)CC1)Nc1ccc2cc1CCc1cccc(c1)Nc1ncc(Cl)c(n1)N2 [Example A64, trifluoroacetate]', 'f'),
  ('Cn1ccnc1C(=O)N1CCC(CC(=O)Nc2ccc3cc2CCc2cncc(c2)Nc2ncc(Cl)c(n2)N3)CC1 [Example A164, bis(trifluoroacetate)]', 't'),
  ('O=C(Nc1ccc2cc1CCc1cccc(c1)Nc1ncc(Cl)c(n1)N2)[C@@H]1CCCN1 [Example A110, bis(trifluoroacetate)]', 'f');

**Q:** Field: below-cutoff. Rule: recorded IC50 strictly less than 9 nM. Subject: Cc1cc(N2CCC(CC(=O)Nc3ccc4cc3CCc3cccc(c3)Nc3ncc(Cl)c(n3)N4)CC2)no1 [Example A248, trifluoroacetate]
**A:** t

**Q:** Given the entry Cc1nonc1C(=O)N1CCC(CC(=O)Nc2ccc3cc2CCc2cncc(c2)Nc2ncc(Cl)c(n2)N3)CC1 [Example A166, bis(trifluoroacetate)] , would its reported IC50 be below 9 nM?
**A:** t

**Q:** Determine whether this compound shows IC50 lower than 9 nM (ties excluded): O=C(Nc1ccc2cc1CCc1cccc(c1)Nc1ncc(Cl)c(n1)N2)C1CCCN(C(=O)NC2CCCC2)C1 (stereo not drawn) [Example A62, trifluoroacetate]
**A:** t

**Q:** Hello, I'm reviewing records and need to know if IC50 of Cn1cnc(S(=O)(=O)N2CCC(CC(=O)Nc3ccc4cc3CCc3cncc(c3)Nc3ncc(Cl)c(n3)N4)CC2)c1 [Example A229, bis(trifluoroacetate)] is below 9 nM. Could you check?
**A:** t

**Q:** # check: IC50 < 9 nM for O=C(COc1ccc2cc1CCc1cncc(c1)Nc1ncc(Cl)c(n1)N2)N1CCn2c(nnc2C(F)(F)F)C1 [Example A249, bis(trifluoroacetate)]
**A:** f

**Q:** Please determine if CC(C)(C)OC(=O)N1CCC(CC(=O)Nc2ccc3cc2CCc2cncc(c2)Nc2ncc(Cl)c(n2)N3)CC1 [Example A70, bis(trifluoroacetate)] is below 9 nM in terms of IC50.
**A:** f

**Q:** For this compound, is IC50 lower than 9 nM? CC(=O)N1CCC(CC(=O)Nc2ccc3cc2CCc2cncc(c2)Nc2ncc(Cl)c(n2)N3)CC1 [Example A76, bis(trifluoroacetate)]
**A:** t

**Q:** Lab note: confirm whether the reported IC50 for this compound is below 9 nM, equality not counting. compound: O=C(Nc1ccccc1)N[C@@H](CO)C(=O)Nc1ccc2cc1CCc1cccc(c1)Nc1ncc(Cl)c(n1)N2 [Example A68, trifluoroacetate]
**A:** t

**Q:** For CCNC(=O)N1CC[C@@H](C(=O)Nc2ccc3cc2CCc2cccc(c2)Nc2ncc(Cl)c(n2)N3)C1 [Example A53, trifluoroacetate] , is the recorded IC50 below the cut-off of 9 nM?
**A:** t

----------
Tgt: human JAK1 (a.a. 837-1142) (Homo sapiens, UniProt P23458)
Construct: human JAK1 (a.a. 837-1142); His tag (N); made in house; host or cells: insect cells (baculovirus)
Test Method Notes: In vitro JAK kinase assay (HTRF, phosphorylation of a biotinylated peptide), JAK1
Format: biochemical
Particulars: Table B1; read-out: JAK1 IC50
Where a name gives a salt, the structure may show the parent alone.
Assay Endpoint: pIC50
Notebook: values listed as pIC50 are -log10 of the concentration (mol/L).

INSERT INTO assay_data (compound, endpoint_value) VALUES
  ('O=C(Nc1ccc2cc1CCc1cncc(c1)Nc1ncc(Cl)c(n1)N2)N1CCN(c2cccc(Cl)c2)CC1 [Example B306, tris(trifluoroacetate)]', 7.57);

**Q:** Which measured pIC50 value corresponds to O=C(Nc1ccc2cc1CCc1cccc(c1)Nc1ncc(Cl)c(n1)N2)c1ccccc1F [Example B38, trifluoroacetate] ?
**A:** 8.85

**Q:** Would you kindly share the measured pIC50 for O=C(Nc1ccc2cc1CCc1cccc(c1)Nc1ncc(Cl)c(n1)N2)c1cccc(Cl)c1 [Example B42, hydrochloride] ?
**A:** 8.77

**Q:** What value of pIC50 has been reported for the following compound? O=C(Nc1ccccc1)Nc1cc2cc(c1)Nc1nc(ncc1Cl)Nc1cccc(c1)CC2 [Example B202, trifluoroacetate]
**A:** 7.44

**Q:** I have this compound here, O=C(Nc1ccc2cc1CCc1cccc(c1)Nc1ncc(Cl)c(n1)N2)N[C@H]1CCN(C(=O)c2nccs2)C1 [Example B231, trifluoroacetate] , and I need its recorded pIC50.
**A:** 8.40

**Q:** Which pIC50 is reported for this compound? O=C(Nc1ccccc1CCl)Nc1ccc2cc1CCc1cccc(c1)Nc1ncc(Cl)c(n1)N2 [Example B108, trifluoroacetate]
**A:** 8.80

----------
Tgt: human JAK1 (a.a. 837-1142) (Homo sapiens)
Construct: human JAK1 (a.a. 837-1142); His tag (N); made in house; host or cells: insect cells (baculovirus)
Test Method Notes: In vitro JAK kinase assay (HTRF, phosphorylation of a biotinylated peptide), JAK1
Format: biochemical
Particulars: read-out: JAK1 IC50
Counter-ions that a name gives are not always drawn.
Assay Endpoint: IC50

Field: example entries. Status: answers known.
INSERT INTO results (molecule, tgt, endpoint_value) VALUES
  ('Cc1cc(CC(=O)Nc2ccc3cc2CCc2cccc(c2)Nc2ncc(Cl)c(n2)N3)on1 [Example C30, trifluoroacetate]', 'human JAK1 (a.a. 837-1142) (Homo sapiens)', '31 nM'),
  ('O=C(Cc1ccccn1)Nc1ccc2cc1CCc1cccc(c1)Nc1ncc(Cl)c(n1)N2 [Example C41, bis(trifluoroacetate)]', 'human JAK1 (a.a. 837-1142) (Homo sapiens)', '112 nM');

**Q:** So what's the measured IC50 for this one? Clc1cnc2nc1Nc1cccc(c1)CCc1cc(ccn1)N2
**A:** 14 nM

**Q:** Recorded IC50 of Cc1cc(C(=O)N2CCC(COc3ccc4cc3CCc3cncc(c3)Nc3ncc(Cl)c(n3)N4)C2)no1 (centres unmarked) [Example C58, bis(trifluoroacetate)] , please.
**A:** 217 nM

**Q:** So what does the record say about IC50 for O=C1Cc2cccc(c2)Nc2ncc(Cl)c(n2)Nc2cccc(c2)N1 [Example C10, trifluoroacetate] ?
**A:** 154 nM

**Q:** Given the entry COC(=O)c1ccc2cc1CCc1cncc(c1)Nc1ncc(Cl)c(n1)N2 , report its measured IC50.
**A:** 120 nM

**Q:** Entry Fc1cnc2nc1Nc1cccc(c1)CCc1cccc(n1)N2 : reported IC50 = ?
**A:** > 1000 nM

**Q:** Quick one: IC50 of Clc1cnc2nc1Nc1cccc(c1)CCc1cncc(c1)N2 [Example C19, bis(trifluoroacetate)] ?
**A:** 2.9 nM

----------
Tgt: Recombinant Human Anaplastic Lymphoma Kinase (Homo sapiens)
Construct: purchased Invitrogen, Carlsbad, Calif
Sequence (Q9UM73 19-1620): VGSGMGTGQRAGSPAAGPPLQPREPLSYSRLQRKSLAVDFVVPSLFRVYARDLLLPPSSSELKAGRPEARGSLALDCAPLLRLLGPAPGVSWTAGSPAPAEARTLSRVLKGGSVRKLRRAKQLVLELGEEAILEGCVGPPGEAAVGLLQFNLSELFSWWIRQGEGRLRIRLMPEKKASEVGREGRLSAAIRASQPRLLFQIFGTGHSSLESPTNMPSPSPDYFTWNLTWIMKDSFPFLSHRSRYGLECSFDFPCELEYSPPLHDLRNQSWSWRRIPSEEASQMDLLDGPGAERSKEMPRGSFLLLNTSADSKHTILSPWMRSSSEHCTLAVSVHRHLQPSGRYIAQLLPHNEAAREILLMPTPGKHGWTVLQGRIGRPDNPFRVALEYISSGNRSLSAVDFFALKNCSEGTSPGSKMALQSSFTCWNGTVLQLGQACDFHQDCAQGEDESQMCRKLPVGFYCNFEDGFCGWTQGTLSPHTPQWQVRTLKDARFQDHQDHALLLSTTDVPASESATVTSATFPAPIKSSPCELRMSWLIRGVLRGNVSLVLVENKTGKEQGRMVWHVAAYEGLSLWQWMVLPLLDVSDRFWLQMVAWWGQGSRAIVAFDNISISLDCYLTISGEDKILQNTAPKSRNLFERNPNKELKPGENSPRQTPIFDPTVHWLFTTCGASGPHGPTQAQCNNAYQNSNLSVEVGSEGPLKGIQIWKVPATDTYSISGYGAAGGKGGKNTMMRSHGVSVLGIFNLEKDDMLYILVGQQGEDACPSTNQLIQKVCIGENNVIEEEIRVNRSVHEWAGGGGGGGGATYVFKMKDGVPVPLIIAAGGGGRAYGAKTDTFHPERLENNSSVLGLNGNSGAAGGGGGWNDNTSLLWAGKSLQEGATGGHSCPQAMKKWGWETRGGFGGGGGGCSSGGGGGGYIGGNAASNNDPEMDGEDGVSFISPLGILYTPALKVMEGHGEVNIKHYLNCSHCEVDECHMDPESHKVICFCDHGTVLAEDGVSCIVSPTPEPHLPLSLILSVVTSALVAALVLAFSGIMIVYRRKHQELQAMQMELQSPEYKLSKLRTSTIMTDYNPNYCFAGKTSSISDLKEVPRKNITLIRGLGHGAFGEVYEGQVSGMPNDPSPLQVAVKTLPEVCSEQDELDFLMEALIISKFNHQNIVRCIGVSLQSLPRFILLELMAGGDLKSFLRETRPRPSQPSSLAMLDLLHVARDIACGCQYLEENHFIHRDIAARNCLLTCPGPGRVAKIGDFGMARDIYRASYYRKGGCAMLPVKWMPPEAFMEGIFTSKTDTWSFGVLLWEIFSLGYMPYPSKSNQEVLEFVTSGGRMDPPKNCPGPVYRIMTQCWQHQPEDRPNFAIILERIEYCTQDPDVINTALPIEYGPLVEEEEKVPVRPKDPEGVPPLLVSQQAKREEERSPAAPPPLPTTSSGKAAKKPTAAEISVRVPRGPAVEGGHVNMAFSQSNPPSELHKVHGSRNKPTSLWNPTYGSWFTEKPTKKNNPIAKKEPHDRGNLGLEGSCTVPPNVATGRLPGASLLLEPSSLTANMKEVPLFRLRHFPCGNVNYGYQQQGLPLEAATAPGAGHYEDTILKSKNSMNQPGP
Test Method Notes: ALK HTRF kinase assay
Assay type: biochemical
Particulars: compound at 500 nM or 1 mM; 90 μM ATP
Structures can show the parent of a compound that is named as a salt.
Consider the following compounds and their measured ALK % of inhibition at a concentration of 500 nM or 1 mM readings.
Write down the numeric answer in % and omit the unit.

Solved cases (5 shown):
INSERT INTO assay_data (compound, tgt, endpoint_value) VALUES
  ('Cc1ccccc1S(=O)(=O)N1CCC(CC(=O)Nc2ccc3cc2CCc2cncc(c2)Nc2ncc(Cl)c(n2)N3)CC1 [Example A225, bis(trifluoroacetate)]', 'Recombinant Human Anaplastic Lymphoma Kinase (Homo sapiens)', 36),
  ('N#Cc1c(F)cccc1N1CCC(CC(=O)Nc2ccc3cc2CCc2cncc(c2)Nc2ncc(Cl)c(n2)N3)CC1 [Example A234, tris(trifluoroacetate)]', 'Recombinant Human Anaplastic Lymphoma Kinase (Homo sapiens)', 13),
  ('Cc1ncsc1C(=O)N1CCC(CC(=O)Nc2ccc3cc2CCc2cncc(c2)Nc2ncc(Cl)c(n2)N3)CC1 [Example A216, bis(trifluoroacetate)]', 'Recombinant Human Anaplastic Lymphoma Kinase (Homo sapiens)', 29),
  ('COc1ccccc1NC(=O)N1CCC(CC(=O)Nc2ccc3cc2CCc2cncc(c2)Nc2ncc(Cl)c(n2)N3)CC1 [Example A152, bis(trifluoroacetate)]', 'Recombinant Human Anaplastic Lymphoma Kinase (Homo sapiens)', 37),
  ('N#Cc1c(Cl)cncc1N1CCC(CC(=O)Nc2ccc3cc2CCc2cncc(c2)Nc2ncc(Cl)c(n2)N3)CC1 [Example A240, tris(trifluoroacetate)]', 'Recombinant Human Anaplastic Lymphoma Kinase (Homo sapiens)', 29);

**Q:** Any idea what its ALK % of inhibition at a concentration of 500 nM or 1 mM is? The compound is Cc1oncc1S(=O)(=O)N1CCC(CC(=O)Nc2ccc3cc2CCc2cccc(c2)Nc2ncc(Cl)c(n2)N3)CC1 [Example A210, trifluoroacetate]
**A:** 20
